Answer each item with its documented half-life at 1 µM.
Assay: Half life in rat whole blood at 1 uM after 5 to 90 mins by UPLC-MS/MS method
Format: ADME, tissue-based

Hello, please tell me recorded half-life at 1 µM for this one: COC(=O)N[C@H](C(=O)NN(Cc1ccc(-c2ccccn2)cc1)C[C@H](OC(=O)[C@@H](NC(=O)OC)C(C)(C)C)[C@H](Cc1ccccc1)NC(=O)OC(OC(=O)[C@@H](N)C(C)C)C(C)C)C(C)(C)C.Cl.Cl (stereo partly drawn)
> 120 min

Hello, please tell me recorded half-life at 1 µM for this one: COC(=O)N[C@H](C(=O)NN(Cc1ccc(-c2ccccn2)cc1)C[C@H](OC(=O)[C@@H](NC(=O)OC)C(C)(C)C)[C@H](Cc1ccccc1)NC(=O)OCc1oc(=O)oc1C)C(C)(C)C
< 5 min

Hello, please tell me recorded half-life at 1 µM for this one: COC(=O)N[C@H](C(=O)NN(Cc1ccc(-c2ccccn2)cc1)C[C@H](OC(=O)[C@@H](NC(=O)OC)C(C)(C)C)[C@H](Cc1ccccc1)NC(=O)OCOC(=O)[C@@H](N)C(C)C)C(C)(C)C.Cl.Cl
20 min

====

Experiment: AUC (0 to 24 hrs) in famotidine treated Sprague-Dawley rat at 10 mg/kg, po by UPLC/MS/MS method
Assay type: ADME, organism-based
Design: dose 10 mg/kg, time < 24 hr, route oral
Conditions: in vivo
result type: AUC(0-t) at 24 h (nM·h)
Respond with the bare value in nM·h.

Hello, please tell me recorded AUC(0-t) at 24 h for this one: COC(=O)N[C@H](C(=O)N[C@@H](Cc1ccccc1)[C@@H](O)CN(Cc1ccc(-c2ccccn2)cc1)NC(=O)[C@@H](NC(=O)OC)C(C)(C)C)C(C)(C)C [ATAZANAVIR]
5

====

Answer each item with its documented half-life at 1 µM.
Test: Half life in rat whole blood at 1 uM after 5 to 90 mins by UPLC-MS/MS method
Assay type: ADME, tissue-based

Hello, please tell me recorded half-life at 1 µM for this one: COC(=O)N[C@H](C(=O)NN(Cc1ccc(-c2ccccn2)cc1)C[C@H](OC(=O)[C@@H](NC(=O)OC)C(C)(C)C)[C@@H](N)Cc1ccccc1)C(C)(C)C.Cl.Cl
> 120 min

Hello, please tell me recorded half-life at 1 µM for this one: COC(=O)N[C@H](C(=O)N[C@@H](Cc1ccccc1)[C@@H](O)CN(Cc1ccc(-c2ccccn2)cc1)NC(=O)[C@@H](NC(=O)OC)C(C)(C)C)C(C)(C)C
> 120 min

Hello, please tell me recorded half-life at 1 µM for this one: COC(=O)N[C@H](C(=O)NN(Cc1ccc(-c2ccccn2)cc1)C[C@H](OC(=O)[C@@H](NC(=O)OC)C(C)(C)C)[C@H](Cc1ccccc1)NC(=O)OC(OC(=O)[C@H](N)C(C)C)C(C)C)C(C)(C)C.Cl.Cl (stereo partly drawn)
> 120 min

====

Assay: Apparent permeability across basolateral to apical side in human Caco2 cells
Format: ADME, cell-based
Conditions: Caco-2
Answer each item with its documented Papp B→A.
Respond with the bare value in ×10⁻⁶ cm/s.

Hello, please tell me recorded Papp B→A for this one: COC(=O)N[C@H](C(=O)NN(Cc1ccc(-c2ccccn2)cc1)C[C@H](OC(=O)[C@@H](NC(=O)OC)C(C)(C)C)[C@H](Cc1ccccc1)NC(=O)OC(OC(=O)[C@@H](N)C(C)C)C(C)C)C(C)(C)C.Cl.Cl (some centres undefined)
11.4

Hello, please tell me recorded Papp B→A for this one: COC(=O)N[C@H](C(=O)NN(Cc1ccc(-c2ccccn2)cc1)C[C@H](OC(=O)[C@@H](NC(=O)OC)C(C)(C)C)[C@H](Cc1ccccc1)NC(=O)OC(OC(=O)[C@H](N)C(C)C)C(C)C)C(C)(C)C.Cl.Cl (some centres undefined)
7.3

Hello, please tell me recorded Papp B→A for this one: COC(=O)N[C@H](C(=O)N[C@@H](Cc1ccccc1)[C@@H](O)CN(Cc1ccc(-c2ccccn2)cc1)NC(=O)[C@@H](NC(=O)OC)C(C)(C)C)C(C)(C)C
47

Hello, please tell me recorded Papp B→A for this one: COC(=O)N[C@H](C(=O)NN(Cc1ccc(-c2ccccn2)cc1)C[C@H](OC(=O)[C@@H](NC(=O)OC)C(C)(C)C)[C@@H](N)Cc1ccccc1)C(C)(C)C.Cl.Cl
34.8
